Provide the recorded AC50 for the entries that follow.
- Target Desc: B2 bradykinin receptor (Homo sapiens, UniProt P30411); also: assay procedure not described here
- Sequence (P30411 whole entry): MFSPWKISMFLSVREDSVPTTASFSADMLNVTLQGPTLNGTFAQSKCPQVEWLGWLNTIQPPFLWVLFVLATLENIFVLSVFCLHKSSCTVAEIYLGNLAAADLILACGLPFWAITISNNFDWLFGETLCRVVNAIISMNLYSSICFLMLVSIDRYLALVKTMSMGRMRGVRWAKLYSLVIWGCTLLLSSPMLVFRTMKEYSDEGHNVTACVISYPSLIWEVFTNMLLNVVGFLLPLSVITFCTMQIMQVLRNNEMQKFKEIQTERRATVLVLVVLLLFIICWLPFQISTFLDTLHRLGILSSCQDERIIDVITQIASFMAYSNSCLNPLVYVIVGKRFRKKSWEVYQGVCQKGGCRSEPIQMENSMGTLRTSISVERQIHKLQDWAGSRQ

// sample Nc1nc2ccc(OC(F)(F)F)cc2s1 , its AC50 was > 30 µM

// sample C#CCN(C)[C@H](C)Cc1ccccc1 , its AC50 was > 10 µM

// sample Cc1cc(-c2ccccc2)nnc1NCCN1CCOCC1 , its AC50 was > 30 µM

// sample CCC(C(=O)O)c1ccc(CC(C)C)cc1 (stereo unspecified) , its AC50 was > 30 µM

// sample CN1CCC2=C(C1)C(c1ccccc1)c1ccccc12 (stereo unspecified) , its AC50 was > 10 µM

// sample O=C(Cn1ccnc1[N+](=O)[O-])NCc1ccccc1 , its AC50 was > 30 µM

* * *

Provide the recorded AC50 for the entries that follow.
- Target Desc: Adenosine receptor A3 (Homo sapiens, UniProt P0DMS8); also: assay procedure not described here
- Sequence (P0DMS8 whole entry): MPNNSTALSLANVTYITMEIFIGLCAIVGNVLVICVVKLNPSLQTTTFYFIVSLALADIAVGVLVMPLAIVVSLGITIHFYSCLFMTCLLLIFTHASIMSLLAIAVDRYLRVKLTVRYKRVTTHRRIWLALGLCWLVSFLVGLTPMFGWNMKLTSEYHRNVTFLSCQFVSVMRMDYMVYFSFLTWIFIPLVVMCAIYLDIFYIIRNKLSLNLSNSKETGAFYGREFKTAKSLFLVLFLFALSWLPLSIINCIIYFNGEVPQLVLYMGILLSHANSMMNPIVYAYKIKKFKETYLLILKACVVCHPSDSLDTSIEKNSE

// sample C[C@H]1C[C@@H]2[C@H]([C@@H](O)C[C@@]3(C)[C@H]2CC[C@]3(O)C(=O)CO)[C@@]2(C)C=CC(=O)C=C12 , its AC50 was > 10 µM

// sample C#CCN[C@@H]1CCc2ccccc21 , its AC50 was > 30 µM

// sample CC(C)(Oc1ccc(C2CC2(Cl)Cl)cc1)C(=O)O (centres undefined) [CIPROFIBRATE] , its AC50 was > 30 µM

// sample O=C(Cn1ccnc1[N+](=O)[O-])NCc1ccccc1 , its AC50 was > 30 µM

// sample Cc1nc2ccc(CN(C)c3ccc(C(=O)N[C@@H](CCC(=O)O)C(=O)O)s3)cc2c(=O)[nH]1 , its AC50 was > 30 µM

// sample CN1CCc2cccc3c2[C@H]1Cc1ccc(O)c(O)c1-3 , its AC50 was 0.67 µM

// sample CS(=O)(=O)Nc1cc2occ(NC=O)c(=O)c2cc1Oc1ccccc1 , its AC50 was > 30 µM

// sample COc1c(C)c2c(c(O)c1C/C=C(\C)CCC(=O)OCCN1CCOCC1)C(=O)OC2 [MYCOPHENOLATE MOFETIL] , its AC50 was > 30 µM

// sample CN[C@@H](C)[C@H](O)c1ccccc1 , its AC50 was > 30 µM

* * *

- Target Desc: Alpha-2A adrenergic receptor (Homo sapiens, UniProt P08913); also: assay procedure not described here
- Sequence (P08913 whole entry): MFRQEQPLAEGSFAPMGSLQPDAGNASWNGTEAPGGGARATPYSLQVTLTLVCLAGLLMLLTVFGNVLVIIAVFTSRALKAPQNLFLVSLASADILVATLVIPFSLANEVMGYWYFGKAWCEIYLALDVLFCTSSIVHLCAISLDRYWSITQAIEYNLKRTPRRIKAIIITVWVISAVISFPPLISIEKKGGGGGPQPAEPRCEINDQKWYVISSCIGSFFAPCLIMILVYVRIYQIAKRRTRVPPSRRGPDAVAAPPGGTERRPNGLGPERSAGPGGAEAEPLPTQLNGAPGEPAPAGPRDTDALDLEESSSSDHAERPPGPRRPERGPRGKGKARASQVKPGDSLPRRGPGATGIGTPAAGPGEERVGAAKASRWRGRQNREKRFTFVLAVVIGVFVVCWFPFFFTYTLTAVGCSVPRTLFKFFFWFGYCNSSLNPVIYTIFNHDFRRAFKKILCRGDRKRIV
- Assay type: functional, cell-based
Parameter: AC50

// sample CC(C)(Oc1ccc(C2CC2(Cl)Cl)cc1)C(=O)O (configuration not stated) [CIPROFIBRATE] , its AC50 was > 30 µM

// sample N[C@@H](C(=O)N[C@@H]1C(=O)N2C(C(=O)O)=C(Cl)CS[C@H]12)c1ccccc1 [CEFACLOR ANHYDROUS] , its AC50 was > 30 µM

// sample CS(=O)(=O)c1ccc([C@@H](O)[C@@H](CO)NC(=O)C(Cl)Cl)cc1 , its AC50 was > 30 µM

// sample CC(C)c1c(C(=O)Nc2ccccc2)c(-c2ccccc2)c(-c2ccc(F)cc2)n1CC[C@@H](O)C[C@@H](O)CC(=O)O , its AC50 was > 10 µM

// sample C[C@H]1C[C@@H]2[C@H]([C@@H](O)C[C@@]3(C)[C@H]2CC[C@]3(O)C(=O)CO)[C@@]2(C)C=CC(=O)C=C12 , its AC50 was > 10 µM

// sample Nc1ccc(/N=N/c2ccccc2)c(N)n1 , its AC50 was > 30 µM

// sample C=C1C[C@@H]2[C@H](CC[C@]3(C)C(=O)CC[C@@H]23)[C@@]2(C)C=CC(=O)C=C12 , its AC50 was > 10 µM

// sample CCOc1cc(N)c([N+](=O)[O-])cc1C(=O)NC1CCN(CC2CC=CCC2)CC1 (configuration not stated) [CINITAPRIDE] , its AC50 was > 30 µM

// sample CCN(CC)CCOC(=O)c1ccc(N)cc1 , its AC50 was > 10 µM

// sample CCC[C@@H]1C[C@@H](C(=O)N[C@@H]([C@H]2O[C@H](SC)[C@H](O)[C@@H](O)[C@H]2O)[C@H](C)Cl)N(C)C1 , its AC50 was > 10 µM

// sample OCCN1CCN(CCCN2c3ccccc3C=Cc3ccccc32)CC1 , its AC50 was > 30 µM

// sample CC/C=C\C/C=C\C/C=C\CCCCCCCC(=O)O , its AC50 was > 30 µM

// sample CN(CCOc1ccc(NS(C)(=O)=O)cc1)CCc1ccc(NS(C)(=O)=O)cc1 [DOFETILIDE] , its AC50 was > 30 µM

// sample NC(N)=Nc1nc(CSCCC(N)=NS(N)(=O)=O)cs1 , its AC50 was > 10 µM

// sample CCCCCOC(=O)Nc1nc(=O)n([C@@H]2O[C@H](C)[C@@H](O)[C@H]2O)cc1F , its AC50 was > 30 µM

// sample C[C@H]1O[C@H](O[C@H]2[C@H](O)[C@@H](O)[C@@H](O[C@H]3[C@H](O)[C@@H](O)C(O)O[C@@H]3CO)O[C@@H]2CO)[C@H](O)[C@@H](O)[C@@H]1N[C@H]1C=C(CO)[C@@H](O)[C@H](O)[C@H]1O (some centres not stated) , its AC50 was > 30 µM

// sample C[C@H]1C[C@@H]2[C@H]([C@@H](O)C[C@@]3(C)[C@H]2CC[C@]3(O)C(=O)COC(=O)CCC(=O)O)[C@@]2(C)C=CC(=O)C=C12 [METHYLPREDNISOLONE HEMISUCCINATE] , its AC50 was > 30 µM

// sample CN1C(=O)CC(=O)N(c2ccccc2)c2cc(Cl)ccc21 , its AC50 was > 10 µM

// sample COC(=O)N[C@H](C(=O)N1CCC[C@H]1c1nc(-c2ccc(-c3ccc(-c4c[nH]c([C@@H]5CCCN5C(=O)[C@@H](NC(=O)OC)C(C)C)n4)cc3)cc2)c[nH]1)C(C)C , its AC50 was > 30 µM

// sample COC(=O)N[C@H](C(=O)N[C@@H](Cc1ccccc1)[C@@H](O)CN(Cc1ccc(-c2ccccn2)cc1)NC(=O)[C@@H](NC(=O)OC)C(C)(C)C)C(C)(C)C , its AC50 was > 10 µM

// sample CN1CCN(C(=O)OC2c3nccnc3C(=O)N2c2ccc(Cl)cn2)CC1 (configuration not stated) , its AC50 was > 10 µM

// sample CC(C)(N)Cc1ccc(Cl)cc1 , its AC50 was > 10 µM

// sample C#CC1(OC(N)=O)CCCCC1 [ETHINAMATE] , its AC50 was > 10 µM

// sample CC(C)[N+](C)(CCC(C(N)=O)(c1ccccc1)c1ccccc1)C(C)C [ISOPROPAMIDE] , its AC50 was > 10 µM

// sample CN1CC[C@]23CCCC[C@H]2[C@H]1Cc1ccc(O)cc13 , its AC50 was 9 µM

// sample CN1C(=O)CC(c2ccccc2)C1=O (configuration not stated) [PHENSUXIMIDE] , its AC50 was > 10 µM

// sample CC(C(=O)O)c1ccc(N2CC=CC2)c(Cl)c1 (configuration not stated) , its AC50 was > 10 µM

// sample CO/N=C(\C(=O)N[C@@H]1C(=O)N2C(C(=O)[O-])=C(C[N+]3(C)CCCC3)CS[C@H]12)c1csc(N)n1 , its AC50 was > 300 µM

// sample COc1c(N2CCNC(C)C2)c(F)cc2c(=O)c(C(=O)O)cn(C3CC3)c12 (configuration not stated) , its AC50 was > 10 µM

// sample C=C1CC[C@@]2(O)[C@H]3Cc4ccc(O)c5c4[C@@]2(CCN3CC2CC2)[C@H]1O5 , its AC50 was > 30 µM

// sample CNC(=O)c1cc(Oc2ccc(NC(=O)Nc3ccc(Cl)c(C(F)(F)F)c3)cc2)ccn1 , its AC50 was > 30 µM

// sample CC(C(O)c1ccc(O)cc1)N1CCC(Cc2ccccc2)CC1 (configuration not stated) , its AC50 was 3.8 µM

* * *

- Target Desc: Vasopressin V1a receptor (Homo sapiens); also: assay procedure not described here
- Sequence (P37288 whole entry): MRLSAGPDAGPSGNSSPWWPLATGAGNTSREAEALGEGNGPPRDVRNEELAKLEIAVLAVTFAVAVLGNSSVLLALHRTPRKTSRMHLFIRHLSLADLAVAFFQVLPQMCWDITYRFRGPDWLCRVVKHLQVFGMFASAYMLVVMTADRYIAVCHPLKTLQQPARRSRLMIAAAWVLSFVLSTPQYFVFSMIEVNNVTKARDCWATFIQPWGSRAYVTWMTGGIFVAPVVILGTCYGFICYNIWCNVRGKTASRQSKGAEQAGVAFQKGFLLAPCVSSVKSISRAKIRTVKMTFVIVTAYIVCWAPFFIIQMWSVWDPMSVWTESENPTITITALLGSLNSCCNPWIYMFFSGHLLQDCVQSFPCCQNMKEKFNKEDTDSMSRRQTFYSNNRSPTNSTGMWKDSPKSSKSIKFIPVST
Parameter: AC50

// sample CC(C)NCC1CCc2cc(CO)c([N+](=O)[O-])cc2N1 (stereo not given) , its AC50 was > 10 µM

// sample CN1CCN(C(=O)OC2c3nccnc3C(=O)N2c2ccc(Cl)cn2)CC1 (stereo not given) , its AC50 was > 30 µM

// sample O=C(O)CCn1c2c(c3ccccc31)C[C@H](NS(=O)(=O)c1ccc(F)cc1)CC2 , its AC50 was > 30 µM

// sample COc1ccc2c(c1)C(=O)N(CCc1ccc(S(=O)(=O)NC(=O)NC3CCCCC3)cc1)C(=O)C2(C)C , its AC50 was > 30 µM

// sample CN[C@@H](C)[C@H](O)c1ccccc1 , its AC50 was > 10 µM
